List of pKi tested on D(2) dopamine receptor (Homo sapiens, UniProt P14416).
Sequence (P14416 whole entry): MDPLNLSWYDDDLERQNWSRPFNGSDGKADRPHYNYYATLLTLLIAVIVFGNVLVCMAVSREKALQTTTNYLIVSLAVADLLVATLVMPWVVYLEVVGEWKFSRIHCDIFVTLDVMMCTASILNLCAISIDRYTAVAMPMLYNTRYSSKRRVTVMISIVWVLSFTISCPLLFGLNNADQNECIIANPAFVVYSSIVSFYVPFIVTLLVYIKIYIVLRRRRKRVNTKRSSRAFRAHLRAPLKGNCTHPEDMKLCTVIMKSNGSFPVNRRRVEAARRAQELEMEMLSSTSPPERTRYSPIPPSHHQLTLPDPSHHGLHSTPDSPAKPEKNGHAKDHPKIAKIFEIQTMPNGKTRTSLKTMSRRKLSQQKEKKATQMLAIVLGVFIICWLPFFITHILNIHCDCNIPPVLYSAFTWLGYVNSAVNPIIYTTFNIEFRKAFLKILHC
pKi: −log10 of the molar value.
recordedEndpoint: pKi

structureSmiles	recordedEndpoint	valueReported
c1ccc(-c2cc(CCCCN3CCN(C(c4ccccc4)c4ccccc4)CC3)on2)cc1	pKi	6.31
COc1ccccc1N1CCN(CCCCc2cc(/C=C/c3ccccc3)no2)CC1	pKi	6.02
CCOc1ccccc1N1CCN(CCCCc2cc(-c3cccs3)no2)CC1	pKi	6.71
O=[N+]([O-])c1cccc(-c2cc(CCCCN3CCN(C(c4ccccc4)c4ccccc4)CC3)on2)c1	pKi	5.82
Cc1ccccc1N1CCN(CCCCc2cc(-c3ccccc3)no2)CC1	pKi	5.19

Values compiled from ChEMBL document CHEMBL1135103.
